- Tested on: WPMY1-TUBA1B-RELA
- experimentDescription: phenotypically active (imaging signature differs from DMSO and reproducible) at any of 0.3-9 uM (binary (1 = active, 0 = inactive)); higher = active
- measurementConditions: treatment time: 24 h
Just give me one of these, please: active, inactive

CCCc1cc(C)n(C)c(=O)c1CN(C)C(=O)c1cc(-c2ccc(N3CCN(C(C)C)CC3)nc2)cc2c1cnn2C(C)C	active
COc1c(Nc2cc(C)[nH]n2)nc(Sc2ccc(S(=O)(=O)Cc3cccc([N+](=O)[O-])c3F)cc2F)nc1N1CCOCC1	active
CC1(C)CCC(C)(C)c2cc(C(O)C(=O)Nc3ccc(C(=O)O)cc3F)ccc21 (stereo not drawn)	inactive
CC(C)n1c(/C=C/[C@@H](O)C[C@@H](O)CC(=O)O)c(-c2ccc(F)cc2)c2ccccc21	active

For `C#C[C@]1(O)CC[C@H]2[C@@H]3CCC4=Cc5oncc5C[C@]4(C)[C@H]3CC[C@@]21C` , which call appears in the assay record?
inactive

For `CCC(CC)(NC(=O)C(C)C)C(=O)N[C@@H](CCCNC(=N)N)C(=O)NC1(C(=O)NC(c2ccc(F)cc2)c2ccc(F)cc2)CCCC1` , which call appears in the assay record?
inactive

For CC(CN(C)C)CN1c2ccccc2Sc2ccccc21.CC(CN(C)C)CN1c2ccccc2Sc2ccccc21 (stereo not drawn) , which call appears in the assay record?
active

For `C[C@@H](Oc1cc(-c2cnn(C3CCNCC3)c2)cnc1N)c1c(Cl)ccc(F)c1Cl` , which call appears in the assay record?
active

* * *

- System: A549-TP53BP1-CLTA
- experimentDescription: phenotypically active (imaging signature differs from DMSO and reproducible) at any of 0.3-9 uM (binary (1 = active, 0 = inactive)); higher = active
- measurementConditions: treatment time: 24 h
Structures can show the parent of a compound that is named as a salt.
Just give me one of these, please: active, inactive

Solved entries:
O=C(O)[C@H]1O[C@@H](Oc2cc3oc(-c4ccccc4)cc(=O)c3c(O)c2O)[C@H](O)[C@@H](O)[C@@H]1O [Baicalin]	inactive
Nc1ccc(-c2ccc3ncc4ccc(=O)n(-c5cccc(C(F)(F)F)c5)c4c3c2)cn1 [Torin 2]	active
CC(C)(C)NCC(O)c1ccc(O)c(CO)c1 (centres undefined) [albuterol]	inactive
Cc1cc(/N=N/c2ccc(S(=O)(=O)Nc3ccccn3)cc2)c(N)cc1O	active
O=C(Nc1cccc(Cl)c1)Nc1ncc(CCNc2ncnc3ccsc23)s1 [SNS 314 mesylate]	active

For NC(=O)c1sc2c([N+](=O)[O-])cc(C(F)(F)F)cc2[n+]1[O-] [Cyclapolin 9] , which call appears in the assay record?
inactive

* * *

- System: WPMY1-ACTB-RAB5A
- experimentDescription: phenotypically active (imaging signature differs from DMSO and reproducible) at any of 0.3-9 uM (binary (1 = active, 0 = inactive)); higher = active
- measurementConditions: treatment time: 24 h
Measured phenotypically active values are reported for all entries that follow.
No unit in the answer, please; the number alone is enough.

Some compounds with recorded phenotypically active:
CCN(CC)c1ccc(/C=N/NC(=O)c2ccncc2)c(O)c1	1
NCCC(O)(P(=O)(O)O)P(=O)(O)O [pamidronate]	0
Nc1cccc(-c2cc3c(Oc4cccc(O)c4)ncnc3[nH]2)c1	1
Nc1ncn([C@@H]2O[C@H](CO)[C@@H](O)[C@H]2O)c(=O)n1 [5-Azacytidine]	1
CC(C)OC(=O)C(C)(C)Oc1ccc(C(=O)c2ccc(Cl)cc2)cc1 [Fenofibrate]	0

Supply measured phenotypically active of NNCCc1ccccc1 [phenelzine] in your reply.
0

Supply measured phenotypically active of COC(=O)c1c(C)cc(OC(=O)c2c(C)cc(O)c(C=O)c2O)c(C)c1O [Atranorin] in your reply.
0

Supply measured phenotypically active of `CC(Oc1ccc(O)cc1)(P(=O)(O)O)P(=O)(O)O` in your reply.
0

Supply measured phenotypically active of C[C@H]1O[C@H](O[C@H]2[C@H](O)[C@@H](O)[C@@H](O[C@H]3[C@H](O)[C@@H](O)[C@H](O)O[C@@H]3CO)O[C@@H]2CO)[C@H](O)[C@@H](O)[C@@H]1N[C@H]1C=C(CO)[C@@H](O)[C@H](O)[C@H]1O [Acarbose] in your reply.
0

Hello, the source for this data is the supplement of paper PMC7411054, in case you need it.
